# Test system: rice
# Experiment Description: Test D flooded paddy test
# Format: in vivo, Oryza sativa
# Measurement Context: 250 g ai/ha, applied to paddy water, visual rating after 13 to 14 days, scale 0 to 100 (0 no effect, 100 complete control)
# Procedure: Plant species in the flooded paddy test selected from barnyardgrass (Echinochloa crus-galli), ducksalad (Heteranthera limosa), rice (Oryza sativa), and sedge, umbrella (small-flower umbrella sedge, Cyperus difformis) were grown to the 2-leaf stage for testing. […] Treated plants and controls were maintained in a greenhouse for 13 to 14 days, after which time all species were compared to controls and visually evaluated. […]
Quantity Name: Plant response rating, Rice (Flood)

Field: Plant response rating, Rice (Flood). Fill in for each record below.
1. CCc1cc(C(=O)N2C[C@H](C)Oc3c(Cl)cccc32)cc(-n2cncn2)c1
2. COC[C@H]1CN(C(=O)c2cc(-n3cnc(C(C)(C)C)n3)ccc2C)c2cccc(Cl)c2O1
3. Cc1ccc(-n2cnc(C3(C)COC3)n2)cc1C(=O)N1C[C@H](C)Oc2c(Cl)cccc21
4. CCc1ncn(-c2cccc(C(=O)N3CC(C(F)(F)F)Oc4c(Cl)cccc43)c2)n1 (stereo not shown)

1. 0
2. 10
3. 10
4. 10

The following molecules each have a reported value; give each one's Plant response rating, Rice (Flood).
1. CC(C)c1ncn(-c2cc3c(c(C(=O)N4C[C@H](C)Oc5c(Cl)cccc54)c2)OCCCO3)n1
2. Cc1ccc(-n2cnc(C3CCC3)n2)cc1C(=O)N1CC(C(F)(F)F)Oc2c(Cl)cccc21 (single isomer, unassigned)
3. COc1ccc(-n2cncn2)cc1C(=O)N1C[C@H](C)Oc2c(Cl)cccc21

0
0
15
